Reference source for all entries: patent US3974140A

tested on: Psdm. aerug. Walter; assay: MIC, liquid medium test tube series dilution test; assay type: cell-based, Pseudomonas aerug.; conditions: 24 hours, 37°C
Listed here are molecules together with their documented MIC.
Give your result in units/ml as a bare value.

Look over these answered cases.
MOLECULE	UOM	MIC
CN(C(=O)N[C@@H](C(=O)N[C@@H]1C(=O)N2[C@@H]1SC(C)(C)[C@@H]2C(=O)O)c1ccccc1)C(=O)c1ccc(Cl)cc1[N+](=O)[O-]	units/ml	25
C=CCN(C(=O)N[C@@H](C(=O)N[C@@H]1C(=O)N2[C@@H]1SC(C)(C)[C@@H]2C(=O)O)c1ccccc1)C(=O)c1ccccc1	units/ml	50
COC(=O)N(C)C(=O)N[C@@H](C(=O)N[C@@H]1C(=O)N2[C@@H]1SC(C)(C)[C@@H]2C(=O)O)c1ccccc1	units/ml	25

query: I am curious: what MIC value has been reported for CCCCOC(=O)N(C)C(=O)N[C@@H](C(=O)N[C@@H]1C(=O)N2[C@@H]1SC(C)(C)[C@@H]2C(=O)O)c1ccccc1 [Example 98] ?
result: 25

query: I am curious: what MIC value has been reported for `CN(C(=O)CCC(Cl)(Cl)Cl)C(=O)N[C@@H](C(=O)N[C@@H]1C(=O)N2[C@@H]1SC(C)(C)[C@@H]2C(=O)O)c1ccccc1` ?
result: 50

query: I am curious: what MIC value has been reported for `CN(C(=O)N[C@@H](C(=O)N[C@@H]1C(=O)N2[C@@H]1SC(C)(C)[C@@H]2C(=O)O)c1ccccc1)C(=O)c1cccc(Cl)c1` ?
result: 12.5

query: I am curious: what MIC value has been reported for `Cc1ccccc1C(=O)N(C)C(=O)N[C@@H](C(=O)N[C@@H]1C(=O)N2[C@@H]1SC(C)(C)[C@@H]2C(=O)O)c1ccccc1` ?
result: 12.5

query: I am curious: what MIC value has been reported for `CN(C(=O)N[C@@H](C(=O)N[C@@H]1C(=O)N2[C@@H]1SC(C)(C)[C@@H]2C(=O)O)c1ccccc1)C(=O)c1ccc(Cl)cc1Cl` ?
result: 12.5
